Reference source for all entries: patent US20250228835A1

Target: ABCD2 WT (Homo sapiens)
Construct: expressed in transfected cells
Sequence (Q9UBJ2 1-740): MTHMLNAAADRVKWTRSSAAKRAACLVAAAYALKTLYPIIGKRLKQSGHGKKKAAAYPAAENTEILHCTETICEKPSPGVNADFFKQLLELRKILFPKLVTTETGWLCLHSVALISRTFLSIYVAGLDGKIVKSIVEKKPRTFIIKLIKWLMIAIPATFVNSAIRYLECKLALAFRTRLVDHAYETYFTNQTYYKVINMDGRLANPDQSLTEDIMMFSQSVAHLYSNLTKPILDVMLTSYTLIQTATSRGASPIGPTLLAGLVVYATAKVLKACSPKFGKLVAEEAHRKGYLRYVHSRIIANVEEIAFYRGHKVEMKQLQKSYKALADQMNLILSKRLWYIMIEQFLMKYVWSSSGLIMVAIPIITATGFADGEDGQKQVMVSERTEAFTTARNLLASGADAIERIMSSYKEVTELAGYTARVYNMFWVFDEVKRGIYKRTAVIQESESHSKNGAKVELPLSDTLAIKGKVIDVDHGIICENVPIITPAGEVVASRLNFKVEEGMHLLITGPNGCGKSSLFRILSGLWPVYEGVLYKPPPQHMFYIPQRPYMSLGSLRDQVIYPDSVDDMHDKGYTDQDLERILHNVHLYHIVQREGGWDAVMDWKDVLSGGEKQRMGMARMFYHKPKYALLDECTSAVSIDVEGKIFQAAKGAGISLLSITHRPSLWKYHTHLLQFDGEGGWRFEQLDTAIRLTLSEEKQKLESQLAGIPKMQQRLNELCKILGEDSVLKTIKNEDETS
Experiment: D2 correction dose-response assay: ABCD2 WT HiBit protein expression
Format: cell-based
Conditions: HEK-293/ABCD2 WT cells, 24 hours treatment, HiBit luminescence; class combines EC50 and Mean MaxAct (fold); read-out: ABCD2 WT EC50, Emax
reportedEndpoint: EC50

The examples below pair each entry with its known result.
                                   compound          measured
0  Cc1cc(C(F)(F)F)nc(C2CC2)c1Oc1nc(-c2cncc(C#N)c2)ccc1NS(=O)(=O)C1CC1 [Compound I-140]         < 1000 nM
1  Cc1cc(C(F)(F)F)nc(C2CC2)c1Oc1nc(-c2cncc(C#N)c2)ccc1S(=N)(=O)c1cccnc1 (stereo not shown) [Compound I-304]         < 1000 nM
2  Cc1cc(C)c(Oc2nc(-c3ccc(C#N)nc3C)ccc2NS(C)(=O)=O)c(C)c1 [Compound I-6]         < 1000 nM
3  Cc1cc(C)c(Oc2nc(-c3cncc(Cl)c3)ncc2S(N)(=O)=O)c(C)c1Cl [Compound I-93]  1000 to 10000 nM
4  Cc1cc(C(F)F)nc(C)c1Oc1nc(-c2ccnc(C#N)c2)ccc1NS(=O)(=O)C1CC1 [Compound I-203]         < 1000 nM
5  Cc1cc(C(F)(F)F)nc(C2CC2)c1Oc1nc(-c2cncc(C#N)c2)ccc1S(=O)(=O)NC1CC1 [Compound I-133]         < 1000 nM
6  Cc1cc(C(F)(F)F)nc(C2CC2)c1Oc1nc(-c2cncc(C#N)c2)ccc1NS(C)(=O)=O [Compound I-163]         < 1000 nM
7  Cc1cc(C)c(Oc2nc(N3CCC(C#N)C3)ccc2NS(C)(=O)=O)c(C)c1 (single isomer, unassigned) [Compound I-261]  1000 to 10000 nM
8  Cc1cc(C2CC2)nc(C)c1Oc1nc(-c2cncc(C#N)c2)ccc1NS(=O)(=O)C1CC1 [Compound I-264]        > 25000 nM
9  COC1CC(NS(=O)(=O)c2ccc(-c3cncc(Cl)c3)nc2Oc2c(C)cc(C)cc2C2CC2)C1 (stereo not shown) [Compound I-74]        < 25000 nM

**Query** Supply measured EC50 of Cc1cc(C)c(Oc2nc(-c3cncc(C#N)c3)ccc2N(C)S(=O)(=O)c2cccnc2)c(C2CC2)n1 [Compound I-136] in your reply.
**Result** 1000 to 10000 nM

**Query** Please give the documented EC50 of Cc1cc(C)c(Oc2nc(-c3cncc(Cl)c3)ccc2S(=O)(=O)NC(c2ccccn2)C(F)(F)F)c(C)c1 (single isomer, unassigned) [Compound I-79]
**Result** 1000 to 10000 nM

**Query** For the compound Cc1cc(C)c(Oc2nc(-c3cncc(C#N)c3)ccc2S(C)(=N)=O)c(C)n1 (stereo not shown) [Compound I-249] , give its reported EC50.
**Result** 1000 to 10000 nM
